Source: patent US20240279310A1

IC50 (pM) BAFF listing for selected binders.
target: recombinant human BAFF (BioLegend) (human, UniProt Q9Y275 134-285); assay: cell-based or functional assay
Field: numeric (pM). Do not append units.

binder="Telitacicept/Tai'ai (RemeGen) (Fc fusion) SRVDQEERFPQGLWTGVAMRSCPEEQYWDPLLGTCMSCKTICNHQSQRTCAAFCRSLSCRKEQGKFYDHLLRDCISCASICGQHPKQCAYFCENKLRSPVNLPPEL" measurement_kind="IC50 (pM) BAFF" u=pM data_value=6850
binder="26 TACI CRD2-Fc (TACI vTD SEQ ID NO:26, K77E/F78Y/Y102D; Fc fusion SEQ ID NO: 167) (Fc fusion) SLSCRKEQGEYYDHLLRDCISCASICGQHPKQCADFCENKLRSGSGGGGSEPKSSDKTHTCPPCPAPEAEGAPSVFLFPPKPKDTLMISRTPEVTCVVVDVSHEDPEVKFNWYVDGVEVHNAKTKPREEQYNSTYRVVSVLTVLHQDWLNGKEYKCKVSNKALPAPIEKTISKAKGQPREPQVYTLPPSRDELTKNQVSLTCLVKGFYPSDIAVEWESNGQPENNYKTTPPVLDSDGSFFLYSKLTVDKSRWQQGNVFSCSVMHEALHNHYTQKSLSLSPG" measurement_kind="IC50 (pM) BAFF" u=pM data_value=1340
binder="belimumab, anti-BAFF monoclonal antibody (antibody, V domains shown) VH: QVQLQQSGAEVKKPGSSVRVSCKASGGTFNNNAINWVRQAPGQGLEWMGGIIPMFGTAKYSQNFQGRVAITADESTGTASMELSSLRSEDTAVYYCARSRDLLLFPHHALSPWGRGTMVTVSS VL: SSELTQDPAVSVALGQTVRVTCQGDSLRSYYASWYQQKPGQAPVLVIYGKNNRPSGIPDRFSGSSSGNTASLTITGAQAEDEADYYCSSRDSSGNHWVFGGGTELTVLG" measurement_kind="IC50 (pM) BAFF" u=pM data_value=2260

Now look at this entry.
Reported IC50 (pM) BAFF, binder atacicept (WT TACI-Fc sequences corresponding to atacicept, containing WT TACI 30-110; SEQ ID NO:132) (Fc fusion) AMRSCPEEQYWDPLLGTCMSCKTICNHQSQRTCAAFCRSLSCRKEQGKFYDHLLRDCISCASICGQHPKQCAYFCENKLRSEPKSSDKTHTCPPCPAPEAEGAPSVFLFPPKPKDTLMISRTPEVTCVVVDVSHEDPEVKFNWYVDGVEVHNAKTKPREEQYNSTYRVVSVLTVLHQDWLNGKEYKCKVSNKALPSSIEKTISKAKGQPREPQVYTLPPSRDELTKNQVSLTCLVKGFYPSDIAVEWESNGQPENNYKTTPPVLDSDGSFFLYSKLTVDKSRWQQGNVFSCSVMHEALHNHYTQKSLSLSPGK : ____
8280
